Listing of recorded melting point by entry.
All answers are understood in °C, so give the number only.

Cn1nnc2cccc(C(O)c3cccc(F)c3)c21 (stereo not drawn)	152

Query string: Looking for the measured melting point of O=c1[nH]c2ccccc2n1CCN1CCNCC1 , can you help?
Result string: 123

----------
melting point overview

Here is how some compounds turned out for melting point.
CCn1cc(C(=O)Cl)c(=O)c2ccc(Cl)nc21	186 to 188 °C
CCCS(=O)(=O)CC(=O)NNC(=O)N1Cc2ccccc2Oc2ccc(Cl)cc21	173 to 175 °C
O=Cc1cnc2n1CCc1ccccc1C2=C1CCN(CCc2ccc(OCc3ccc4ccccc4n3)cc2)CC1	194 °C
O=C(OCC(O)CO)c1cc(F)ccc1Nc1ccnc2cc(Cl)ccc12 (stereo not drawn)	168 °C
CCOC(=O)C(C)(C)c1ccc(OCc2ccccc2)cc1	54 to 55 °C

Query string: So what's the measured melting point for this one? CC1(C(O)=Nc2cc(Cl)cc(Cl)c2)CC(F)C1(C)C(=O)O (stereo not drawn)
Result string: 122 to 123 °C

Query string: Entry to check: O=C(CCc1cccc([N+](=O)[O-])c1)Nc1ccc(Nc2ccccc2)cc1
Result string: 130 to 132 °C

Query string: Okay, and COC(=O)C=CC(=O)Nc1ccc(Cl)cc1C(=O)NC(C)C1CC1 (stereo not drawn) ?
Result string: 131 °C

Query string: What about this compound? [N-]=[N+]=NC1CCCC2(CCCC2)NC1=O (stereo not drawn)
Result string: 96 to 99 °C

Query string: Cool, now CC(C)(C)OC(=O)N1CCN(c2ccc(N3C[C@H](CN)OC3=O)cc2F)CC1
Result string: 184 °C

Query string: For CSc1ccc(C(=O)Nc2c(Cl)cncc2Cl)cc1OC1CCCC1 then?
Result string: 157 to 159 °C

Query string: // query: CN(C)Cc1ccc(CSCCNc2ncc(Cc3cccnc3)c(=O)[nH]2)cc1
Result string: 124 to 126 °C

Query string: What do we get for FC(F)(F)c1cc(-c2ccc(Cl)cc2)nc2c(-c3ccncc3)cnn12 ?
Result string: 274 °C

Query string: Queued: NS(=O)(=O)c1ccc(-n2nc(C(F)(F)F)cc2-c2ccc(Cl)cc2)cc1F
Result string: 140 to 141 °C

----------
melting point values by entry

O=P(c1ccccc1)(c1ccccc1)c1cc(P(=O)(c2ccccc2)c2ccccc2)nc(P(=O)(c2ccccc2)c2ccccc2)n1	235 to 236 °C
CON1CCCNC1=C[N+](=O)[O-]	84 to 85 °C
Cc1c(F)c(F)c(C(=O)NC2CCCCCC2)c(F)c1F	164 to 165 °C
Cc1ccc(S(=O)(=O)NC(C)(C)CO)cc1NC(=O)c1cnn2c(C3CC3)cc(-c3ccc(C(F)(F)F)cc3)nc12	232 to 233 °C
CC(C)(C)c1cccc(C(C)(C)C)c1C(OC(N)=O)S(=O)(=O)NC(c1ccccc1)c1ccccc1 (stereo not given)	175 to 178 °C
CCOC(=O)CNc1cc(Cl)nc(Cl)n1	89 to 91 °C
CCOC(=O)c1c(C(F)(F)F)nc(C(F)(F)F)c(C(=O)O)c1Cl	113 to 115 °C
Cc1nn(-c2ccc(F)cc2F)cc1C(=O)O	245 to 247 °C

Query string: Name the recorded melting point for CC(=O)OCC(=O)Nc1nc(CN2CCC(c3c[nH]c4ccccc34)CC2)cs1 .
Result string: 140 to 144 °C

Query string: Similarly, Cc1ccc(C(=O)c2cc(CCN(C)C)c(O)c(C(C)(C)C)c2)cc1 ?
Result string: 123 to 124 °C

Query string: Thanks! And c1ccc(Nn2ccc3ccccc32)nc1 ?
Result string: 109 to 110 °C

Query string: Quick one: COc1ccc(CN(C)CCCSc2ccc(NC(=O)c3cccc4c(=O)c5ccccc5sc34)cc2)cc1OC
Result string: 148 °C

Query string: Try this molecule next: CC(C)(C)COc1ccc(NC(=O)c2ccn(-c3ccc(F)cc3)c2)cc1C#N
Result string: 167 to 169 °C

Query string: Request: COC(=O)CC1CC(c2ccc(Cl)nc2)=NO1 (stereo not given)
Result string: 94 to 96 °C

Query string: Queued: CCCc1nc2c(C)cnc(C(=O)O)c2n1Cc1ccc(-c2ccccc2-c2nnn[nH]2)cc1
Result string: 161 to 163 °C

# credit: a melting point compilation (Tetko et al.; mined from patent text by program, amines drawn as free bases though some values may be those of a salt)
